Where do the numbers come from? From patent US5545640A.

# assayedTarget: HIV protease (Human immunodeficiency virus type 1 group M subtype B)
# Construct: an HIV-encoded enzyme known as HIV protease
# testSummary: biochemical
# testConditions: recombinant HIV protease; decapeptide substrate; HPLC assay; read-out: IC50 (concentration causing 50% inhibition of HIV protease)
Provide the reported log10 IC50 of each item.
Reminder: these figures are log10 of reported IC50, in nM before transformation.

Which log10 IC50 reading was recorded for the compound "CC(C)OC(=O)C[C@@H](C(=O)NC[C@@H](O)[C@H](Cc1ccccc1)NC(=O)[C@@H](NC(=O)c1ccc2ccccc2n1)[C@@H](C)O)C(C)(C)C" ?
1.66

Which log10 IC50 reading was recorded for the compound "CCC(CC)NC(=O)C[C@@H](C(=O)NC[C@@H](O)[C@H](Cc1ccccc1)NC(=O)[C@H](CC(N)=O)NC(=O)c1cnc2ccccc2n1)C(C)(C)C" ?
0.48

Which log10 IC50 reading was recorded for the compound "CCC(CC)NC(=O)C[C@@H](C(=O)NC[C@@H](O)[C@H](Cc1ccccc1)NC(=O)[C@@H](NC(C)=O)C(C)C)C(C)(C)C" ?
0.60

Which log10 IC50 reading was recorded for the compound "CC(C)C(NC(=O)C[C@@H](C(=O)NC[C@@H](O)[C@H](Cc1ccccc1)NC(=O)[C@H](CC(N)=O)NC(=O)c1ccc2ccccc2n1)C(C)(C)C)C(C)C" ?
0.60

Which log10 IC50 reading was recorded for the compound "CCC(CC)NC(=O)C[C@@H](C(=O)NC[C@@H](O)[C@H](Cc1ccccc1)NC(=O)[C@H](CC(N)=O)NC(=O)c1cccc2cccnc12)C(C)(C)C" ?
1.18

Which log10 IC50 reading was recorded for the compound "CCC(CC)NC(=O)C[C@@H](C(=O)NC[C@@H](O)[C@H](Cc1ccccc1)NC(=O)[C@H](CC(N)=O)NC(=O)c1cc2ccccc2n1C)C(C)(C)C" ?
1.15
